biological target: Testis-specific chromodomain protein Y 1 (Homo sapiens, UniProt Q9Y6F8); experiment: Binding affinity to recombinant human N-terminal GST-tagged CDY1 (1 to 65 residues) expressed in Escherichia coli […] by SPR analysis
Sequence (Q9Y6F8 whole entry, the tested form may be a part): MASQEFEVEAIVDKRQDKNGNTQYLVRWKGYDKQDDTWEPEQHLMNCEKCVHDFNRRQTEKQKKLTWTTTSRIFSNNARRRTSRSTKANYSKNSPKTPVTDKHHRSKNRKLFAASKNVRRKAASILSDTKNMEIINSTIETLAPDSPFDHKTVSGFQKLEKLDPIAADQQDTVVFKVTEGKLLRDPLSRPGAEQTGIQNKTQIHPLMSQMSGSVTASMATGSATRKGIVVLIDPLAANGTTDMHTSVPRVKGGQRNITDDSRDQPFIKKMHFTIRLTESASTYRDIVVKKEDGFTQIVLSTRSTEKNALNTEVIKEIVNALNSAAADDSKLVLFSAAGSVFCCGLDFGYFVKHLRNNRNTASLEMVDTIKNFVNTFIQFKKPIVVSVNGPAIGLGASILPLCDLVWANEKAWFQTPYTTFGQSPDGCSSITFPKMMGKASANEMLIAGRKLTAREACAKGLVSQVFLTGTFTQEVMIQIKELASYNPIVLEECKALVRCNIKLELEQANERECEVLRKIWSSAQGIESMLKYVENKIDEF
Recorded pKd values for a group of compounds are listed next.
The value called pKd is obtained by taking minus log10 of the concentration in mol/L.

// below: answered compounds
[[record]]
compound = "CCCN1C(=O)C(O)(CC(=O)c2ccc3c(c2)CCCC3)c2ccccc21 (stereo unspecified)"
experimental_result = 4.05

[[record]]
compound = "COc1cccc(C(=O)Cn2c(=O)oc3ccccc32)c1"
experimental_result = 5.24

[[record]]
compound = "O=C(Cn1c(=O)oc2ccccc21)c1ccc2ccccc2c1"
experimental_result = 4.38

[[record]]
compound = "O=C(Cn1c(=O)oc2ccccc21)N1CCC(N2CCOCC2)CC1"
experimental_result = 4.68

[[record]]
compound = "COc1ccc(C(=O)Cn2c(=O)oc3ccccc32)cc1OC"
experimental_result = 4.62

[[record]]
compound = "COc1cccc(C(=O)Cn2cnc3ccccc32)c1"
experimental_result = 5.40


-- ask Provide only the value of recorded pKd for O=C(Cn1c(=O)oc2ccc(F)cc21)c1c[nH]c2ccccc12
-- reply 4.63

-- ask For the compound CCCN1C(=O)C(O)(CC(=O)c2cccc3ccccc23)c2ccccc21 (stereo unspecified) , report pKd.
-- reply 4.68

---

As shown below, each of these compounds has a reported pKd value.
Target: Chromobox protein homolog 7 (Homo sapiens)
Sequence (O95931 whole entry): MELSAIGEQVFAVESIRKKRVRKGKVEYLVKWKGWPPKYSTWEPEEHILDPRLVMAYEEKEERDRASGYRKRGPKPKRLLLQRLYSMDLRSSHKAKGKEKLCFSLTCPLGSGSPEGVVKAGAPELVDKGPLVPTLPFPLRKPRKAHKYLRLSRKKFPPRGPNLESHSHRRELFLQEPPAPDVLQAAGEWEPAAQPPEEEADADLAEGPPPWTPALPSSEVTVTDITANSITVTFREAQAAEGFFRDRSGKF
Test: Binding affinity to recombinant human N-terminal GST-tagged CBX7 (1 to 62 residues) expressed in Escherichia coli […] by SPR analysis
Please report pKd as the negative decimal logarithm of the molar concentration, giving only the number.

# count of solved cases: 6
[[record]]
line_notation = "COc1ccc2oc(=O)n(CC(=O)c3ccc4ccccc4c3)c2c1"
metric = "pKd"
experimental_result = 4.23

[[record]]
line_notation = "O=C(CN1C(=O)COc2ccccc21)c1c[nH]c2ccccc12"
metric = "pKd"
experimental_result = 4.43

[[record]]
line_notation = "Nc1ccc2c(c1)sc(=O)n2CC(=O)c1c[nH]c2ccccc12"
metric = "pKd"
experimental_result = 5.19

[[record]]
line_notation = "O=C(CN1C(=O)COc2ccccc21)c1ccc2ccccc2c1"
metric = "pKd"
experimental_result = 4.58

[[record]]
line_notation = "O=C(Cn1c(=O)oc2ccccc21)c1cccc2ccccc12"
metric = "pKd"
experimental_result = 4.52

[[record]]
line_notation = "CCN(CC)C1CCN(C(=O)Cn2c(=O)oc3ccccc32)CC1"
metric = "pKd"
experimental_result = 4.33


-- ask Under Chromobox protein homolog 7 (Homo sapiens): report pKd of O=C(Cn1c(=O)oc2ccccc21)c1c[nH]c2ccccc12 .
-- reply 5.03

-- ask Recall the reported pKd of O=C(Cn1c(=O)oc2ccccc21)N1CCC(N2CCCC2)CC1 when tested on Chromobox protein homolog 7 (Homo sapiens).
-- reply 4.79

-- ask Recall the reported pKd of COc1ccc2oc(=O)n(CC(=O)c3c[nH]c4ccccc34)c2c1 when tested on Chromobox protein homolog 7 (Homo sapiens).
-- reply 4.69

Entry source: ChEMBL document CHEMBL4359913
